Measurement Notes: qHTS profiling of the MIPE4 collection as inhibitors of Plasmodium falciparum (3D7) proliferation (AID 743344);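 also: scaled between DMSO vehicle wells and 0.29 µM artemisinin as full inhibition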
Run Parameters: P. falciparum 3D7 in erythrocytes, SYBR Green DNA fluorescence, 72 h; at 28.5 µM unless noted
Exercise: state measured parasite growth, % of DMSO control for each of the molecules provided.

Need parasite growth, % of DMSO control, item COc1cc2ncnc(Nc3ccc(F)c(Cl)c3)c2cc1NC(=O)C=CCN1CCCCC1 9.04%

Next record, please: Cc1cc(Nc2cc(N3CCN(C)CC3)nc(C=Cc3ccccc3)n2)n[nH]1 5.15% [at 57.5 µM]

Queued: COc1ccc(CC2c3cc(OC)c(OC)cc3CC[N+]2(C)CCC(=O)OCCCCCOC(=O)CC[N+]2(C)CCc3cc(OC)c(OC)cc3C2Cc2ccc(OC)c(OC)c2)cc1OC (stereo not drawn) 57.8% [at 5.51 µM]

###

I'd be grateful if you could share measured Potency for these entries.
System: HEK293
Measurement Notes: Cytotoxic Profiling of Annotated Libraries Using Quantitative High-Throughput Screening (AID 1296008); also: potency is read from the fitted curve at half-maximal effect; nearly all actives have a fitted effect of over 60% in size
Run Parameters: Five cell lines viability, CellTiter-Glo ATP luminescence, 48-72 h
Records with an inconclusive call do not appear. The source made the active and inactive calls. Calls follow the shape of the dose curve; as a rule, active = well fitted inhibition curve with a large enough effect; inconclusive = small, poorly fitted or top-dose-only effect; inactive = flat fitted curve, though single readings scatter.

For the compound CC(C)=CCCC(C)=CCCC(C)=CCSc1ccccc1C(=O)O , what Potency is on record? 1.66 µM (active)

Another compound to check: COc1cccc(Nc2c(C(N)=O)cnc3c(C)cc(S(=O)(=O)c4cccc(C(=O)N(C)C)c4)cc23)c1 12.9 µM (active)

Next up: COCCn1c2c([n+](Cc3cnccn3)c1C)C(=O)c1ccccc1C2=O 0.0166 µM (active)

Now give it for C=CC(=O)Nc1cc2c(Nc3ccc(F)c(Cl)c3)ncnc2cc1C#CC(C)(C)N1CCN(C)CC1 too. 2.96 µM (active)

# repeat for CN(C)CC=CC(=O)Nc1cc2c(Nc3ccc(F)c(Cl)c3)ncnc2cc1O[C@H]1CCOC1 1.32 µM (active)

One more compound: COCCOc1ccc2c(c1)ncn2-c1ccc2cccc(N3CCC(N)CC3)c2n1 11.8 µM (active)

// same read-out, input: CC(C)(C)OC(=O)Nc1ccc(-c2cc(C(=O)NCCCCCCC(=O)NO)no2)cc1 7.43 µM (active)

Follow-up entry: Cc1cccc(C=NNc2cc(N3CCOCC3)nc(OCCc3ccccn3)n2)c1 5.9 µM (active)

###

Measurement Notes: qHTS of pediatric cancer cell lines to identify multiple opportunities for drug repurposing: Primary screen for DAOY cells (AID 1347090); also: nearly all actives have a fitted effect of over 55% in size
Run Parameters: DAOY medulloblastoma viability, CellTiter-Glo luminescence, 48 h; series mostly up to 46 µM
Results filed as inconclusive are left out. The source made the active and inactive calls. The call rests on the fitted dose curve; in most records, active means well fitted cell-killing curve with a large enough effect; inconclusive means small, poorly fitted or top-dose-only effect; inactive means flat fitted curve, though single readings scatter.
Permitted responses: 1 for active, 0 for inactive

In this assay, the call recorded for CN(C1CCc2c(c3ccccc3n2CC(=O)O)C1)S(=O)(=O)c1ccc(F)cc1 (configuration not stated) was what? 1

What do you have for COc1ccc(F)c(F)c1C(=O)c1cnc(NC2CCN(S(C)(=O)=O)CC2)nc1N ? 1

Please answer likewise for COc1cc2c(cc1-c1c(C)noc1C)ncc1[nH]c(=O)n([C@H](C)c3ccccn3)c12 1

What do we get for C#Cc1cccc(Nc2ncnc3cc(OC)c(OCCCCCCC(=O)NO)cc23)c1 ? 1

// next record CC[C@@H]1C(=O)N(C)c2cnc(Nc3ccc(C(=O)NC4CCC(N5CCN(CC6CC6)CC5)CC4)cc3OC)nc2N1C(C)C (some centres not stated) 1

Can you check CCOc1ccccc1OCCNC(C)Cc1ccc(OC)c(S(N)(=O)=O)c1 (configuration not stated) next? 0

// next record O=C(Nc1cn[nH]c1-c1nc2ccc(CN3CCOCC3)cc2[nH]1)NC1CC1 1

Now the same for Cc1cc(Nc2cc(NC(=O)c3c(Cl)cccc3Cl)ccn2)nc(N)n1 1

Here is the next compound: Cc1nc2cnc3ccc(C#Cc4cccnc4)cc3c2n1-c1ccc(C(C)(C)C#N)cc1 1

Can you check CC(=O)OCC(=O)[C@@]1(O)[C@H](C)C[C@H]2[C@@H]3C=C(C)C4=Cc5c(cnn5-c5ccccc5)C[C@]4(C)[C@@H]3[C@@H](O)C[C@@]21C next? 1

How about Nc1nc(Nc2ccc(S(N)(=O)=O)cc2)nn1C(=O)c1c(F)cccc1F ? 1

Repeat with COc1ccc(C=Cc2cc(OC)c(OC)c(OC)c2)cc1O 1

###

Measurement Notes: qHTS of pediatric cancer cell lines to identify multiple opportunities for drug repurposing: Primary screen for LAN-5 cells (AID 1347100)
Run Parameters: LAN-5 neuroblastoma viability, CellTiter-Glo luminescence, 48 h; series mostly up to 46 µM
Inconclusive results are not listed. Active and inactive are the calls of the source. The call rests on the fitted dose curve; in most records, active means well fitted cell-killing curve with a large enough effect; inconclusive means small, poorly fitted or top-dose-only effect; inactive means no such curve, though single readings can be large or run the other way.
Just give me one of these, please: active, inactive

What was the test verdict on COc1ccc(OC)c(-c2nnc3ccc(-c4ccc(OC)c(O[C@@H]5CCOC5)c4)nn23)c1 ? active

Lookup CCS(=O)(=O)c1cccc(-c2cc(C(=O)NC3CCN(C)CC3)c(C)c3[nH]c4ncc(C)cc4c23)c1 active

Queued: Cc1c(CN2CCN(S(C)(=O)=O)CC2)sc2c(N3CCOCC3)nc(-c3cnc(N)nc3)nc12 active

Subsequent entry: CC1(C)O[C@@H]2C[C@@H]3[C@H]4C[C@@H](F)C5=CC(=O)C=C[C@]5(C)[C@@]4(F)[C@@H](O)C[C@]3(C)[C@]2(C(=O)CO)O1 inactive

Then this compound: O=C(CCCCCCNC(=O)c1cnc(N(c2ccccc2)c2ccccc2)nc1)NO active

Next compound up: Nc1ccn([C@@H]2O[C@H](CO)[C@H](O)C2(F)F)c(=O)n1 active

Ok, now COc1ccc(C(=O)CC2(O)C(=O)Nc3c(Cl)ccc(Cl)c32)cc1 (centres undefined) active

Continue with CC(C)c1cc(C(=O)N2Cc3ccc(CN4CCN(C)CC4)cc3C2)c(O)cc1O active

Record: CC[C@@]1(O)C(=O)OCc2c1cc1n(c2=O)Cc2cc3cc(O)ccc3nc2-1 active

Another: Cc1cc(Nc2cc(N3CCN(C)CC3)nc(Sc3ccc(NC(=O)C4CC4)cc3)n2)n[nH]1 active

What do you get for CC(=O)Nc1nc(C)c(-c2ccc(Cl)c(S(=O)(=O)NCCO)c2)s1 ? active

And then CC=C1NC(=O)[C@H]2CSSCCC=C[C@H](CC(=O)N[C@H](C(C)C)C(=O)N2)OC(=O)[C@H](C(C)C)NC1=O , what is it? active

Another: COCCn1c2c([n+](Cc3cnccn3)c1C)C(=O)c1ccccc1C2=O active

Another compound to check: CCOc1cc2ncc(C#N)c(Nc3ccc(F)c(Cl)c3)c2cc1NC(=O)C=CCN(C)C active

Okay, and COc1cc2c(Nc3ccc(NC(=O)c4ccccc4)cc3)ncnc2cc1OCCCN1CCOCC1 ? active

One more compound: COc1cccc2c(NCc3ccccc3)nc(-n3c(N)nc4ccccc43)nc12 active

Quick one: CC(=O)SC[C@@H](C)C(=O)N1CCC[C@H]1C(=O)N[C@@H](Cc1ccccc1)C(=O)O inactive

Next compound up: C[C@@H]1COC(Nc2ccc3ncnc(Nc4ccc(OCc5nccs5)c(Cl)c4)c3c2)=N1 active

Now try CC1(C)CC(=O)c2c(C(F)(F)F)nn(-c3ccc(C(N)=O)c(NC4CCC(OC(=O)CN)CC4)c3)c2C1 (centres undefined) . active

Same question for Nc1nc(NCCNc2ncc(-n3ccnc3)c(-c3ccc(Cl)cc3Cl)n2)ccc1[N+](=O)[O-] please. active

Entry to check: C=CC(=O)Nc1cccc(Oc2nc(Nc3ccc(N4CCN(C)CC4)cc3)ncc2Cl)c1 active

Then Cc1ccc(C(=O)Nc2ccc(CN3CCN(C)CC3)c(C(F)(F)F)c2)cc1C#Cc1cnc2cccnn12 ? active

Param item: CC(=O)Nc1sc2c(c1-c1nc3ccccc3s1)CNC2 active

# repeat for Clc1cccc(-n2nnnc2NCc2ccccc2Oc2ccccn2)c1Cl inactive

Again, but for CCn1cc(-c2ccnc3[nH]c(-c4cccc(CN(C)C)c4)cc23)c(-c2ccc(NC(=O)N(C)C)cc2)n1 active

Please give the result for CNC(=O)c1ccc(-c2cnc3ncc(Cc4ccc5ncccc5c4)n3n2)cc1F too. inactive

Same read-out for Nc1ccc(C(=O)c2cc3c(ccc4ccccc43)[nH]2)cc1 ? active

And what about the compound C=CC(=O)N1CCC[C@@H](n2nc(-c3ccc(Oc4ccccc4)cc3)c3c(N)ncnc32)C1 ? active

Moving on to the next compound: O=C(C=Cc1cccc(S(=O)(=O)Nc2ccccc2)c1)NO active

###

Would you mind telling me the reported cell viability, % of control (lower = more cytotoxic) of each entry?
Measurement Notes: High-throughput drug toxicity screening in the BPDCN cell line Gen2.2 (AID 1224824);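 also: cells exposed to compounds for 48 h before reading; 100% = DMSO and 0% = bortezomib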
Run Parameters: Gen2.2 BPDCN cells; at 45.8 µM (top of the series) unless noted
Please state the number and follow it with the unit.

Item under review: Cc1cc(Nc2cc(CN3CCOCC3)c3nc(C)c(Cc4ccc(Cl)cc4F)n3n2)n[nH]1 . Reported cell viability, % of control (lower = more cytotoxic)? 4.25%

Now consider COCCn1c2c([n+](Cc3cnccn3)c1C)C(=O)c1ccccc1C2=O . 9.73%

Input CN1CCC(CNc2ccc3ncc(-c4cccc(OC(F)(F)F)c4)n3n2)CC1 11.1%

Check O=C(O)Cn1nnc(-c2cc(N3CCC(Oc4cc(F)ccc4Br)CC3)no2)n1 too. 231%

Now consider CN(C)c1nc(Cc2ccc(NC(=O)c3ccc4ccccc4c3)cc2)nc(Cl)c1CC(=O)O . 90.6%

What do you have for COc1cc2ncn(-c3cc(OCc4ccccc4C(F)(F)F)c(C(N)=O)s3)c2cc1OC ? 43.1%

Now the compound Nc1cccc(-c2cc3c(Oc4cccc(O)c4)ncnc3[nH]2)c1 115%

Repeat for the following compound: c1nc2nc(Nc3ccc(N4CCOCC4)cc3)nc(NC3CCCCC3)c2[nH]1 9.78%

Would you mind doing COc1cc(-c2nn(C3CCC(N4CCN(C(C)=O)CC4)CC3)c3ncnc(N)c23)ccc1NC(=O)c1cc2ccccc2n1C (stereo not given) as well? 34.5%

Request: COCCOc1ccc2c(c1)ncn2-c1ccc2cccc(N3CCC(N)CC3)c2n1 3.06%

Further, for OCc1ccc(-c2ccc(-c3ccc(CO)s3)o2)s1 ? 1.11%

Next entry: CCC1=C[C@@H]2CN(C1)Cc1c([nH]c3ccccc13)[C@@](C(=O)OC)(c1cc3c(cc1OC)N(C)[C@@H]1[C@@](O)(C(=O)OC)[C@H](OC(C)=O)[C@]4(CC)C=CCN5CC[C@]31[C@@H]54)C2 28.9%

What do we get for Nc1ccccc1NC(=O)c1ccc(CNC(=O)OCc2cccnc2)cc1 ? 2.59%

Repeat for the following compound: COc1cc2nccc(Oc3ccc(NC(=O)C4(C(=O)Nc5ccc(F)cc5)CC4)cc3)c2cc1OC 5.49%

Subsequent entry: Cc1cc(Nc2cc(NC(=O)c3c(Cl)cccc3Cl)ccn2)nc(N)n1 12.1%

Subsequent entry: c1ccc2c(CCNc3ccc(Nc4ccncc4)cc3)c[nH]c2c1 5.37%

Can you handle Nc1ccc(S(=O)(=O)Nc2ncccn2)cc1 next? 115%

Next compound: CCC(=C(c1ccccc1)c1ccc(OCCN(C)C)cc1)c1ccccc1 31.7%

Now the same for C=C1C(=CC=C2CCCC3(C)[C@@H]([C@H](C)C=CC=CC(O)(CC)CC)CC[C@@H]23)C[C@@H](O)C[C@@H]1O (stereo not given in full) 17.9%

Item: C1Cc2[nH]nc(-c3nn[nH]n3)c2C1 194%

Try the compound CC(=O)SC[C@@H](C)C(=O)N1CCC[C@H]1C(=O)N[C@@H](Cc1ccccc1)C(=O)O 132%

Param item: CN(c1ncccc1CNc1nc(Nc2ccc3c(c2)CC(=O)N3)ncc1C(F)(F)F)S(C)(=O)=O 12.1%

Please answer likewise for Cc1c(C)n(Cc2ccc(-c3ccccc3C(=O)O)cc2)c2ccc(C(=O)N[C@@H](C)c3ccc([N+](=O)[O-])cc3)cc12 21.6%

Would you mind doing COc1cccc2c(NCc3ccccc3)nc(-n3c(N)nc4ccccc43)nc12 as well? 3.5%

Please give the result for CN1CCN(Cc2ccc(NC(=O)Nc3ccc(Oc4cc(NC(=O)C5CC5)ncn4)cc3)cc2C(F)(F)F)CC1 too. 0.71%

Another compound: COc1cc(C(C)C)c2c(c1)S(=O)(=O)N(COc1cc(=O)n3cccc(OCCN4CCCCC4)c3n1)C2=O 3.67%

Continue with Cc1[nH]c2ccccc2c1CCNCc1ccc(C=CC(=O)NO)cc1 7.87%

Now consider Clc1cccc(-c2nnnn2Cc2cccnc2)c1Cl and answer again. 164%

Try the compound O=C(O)c1ccc2c(c1)nc(Nc1cccc(Cl)c1)c1ccncc12 84.5%

Field entry: O=c1c2ccccc2nc2n1CCc1c-2[nH]c2ccccc12 35%

Same again, this time with CC(C)(C)c1cnc(CSc2cnc(NC(=O)C3CCNCC3)s2)o1 1.75%

Next entry: NCC(=O)Nc1ccc(-n2nc(C(F)(F)F)cc2-c2ccc3c(ccc4ccccc43)c2)cc1 1.18%

Thanks! And CC1COC2(CCN(c3nc(=O)c4cc(C(F)(F)F)cc([N+](=O)[O-])c4s3)CC2)O1 (stereo not given) ? 104%

Proceed to O=C(O)c1ccc2cc(-c3ccc(O)c(C45CC6CC(CC(C6)C4)C5)c3)ccc2c1 30.9%

Record: CC[C@@H]1C(=O)N(C)c2cnc(Nc3ccc(C(=O)NC4CCC(N5CCN(CC6CC6)CC5)CC4)cc3OC)nc2N1C(C)C (stereo not given in full) 2.88%

Source: PubChem BioAssay (NCATS)
